Target: Acetylcholinesterase (Electrophorus electricus) (UniProt O42275)
Sequence (O42275 24-633 limits assumed): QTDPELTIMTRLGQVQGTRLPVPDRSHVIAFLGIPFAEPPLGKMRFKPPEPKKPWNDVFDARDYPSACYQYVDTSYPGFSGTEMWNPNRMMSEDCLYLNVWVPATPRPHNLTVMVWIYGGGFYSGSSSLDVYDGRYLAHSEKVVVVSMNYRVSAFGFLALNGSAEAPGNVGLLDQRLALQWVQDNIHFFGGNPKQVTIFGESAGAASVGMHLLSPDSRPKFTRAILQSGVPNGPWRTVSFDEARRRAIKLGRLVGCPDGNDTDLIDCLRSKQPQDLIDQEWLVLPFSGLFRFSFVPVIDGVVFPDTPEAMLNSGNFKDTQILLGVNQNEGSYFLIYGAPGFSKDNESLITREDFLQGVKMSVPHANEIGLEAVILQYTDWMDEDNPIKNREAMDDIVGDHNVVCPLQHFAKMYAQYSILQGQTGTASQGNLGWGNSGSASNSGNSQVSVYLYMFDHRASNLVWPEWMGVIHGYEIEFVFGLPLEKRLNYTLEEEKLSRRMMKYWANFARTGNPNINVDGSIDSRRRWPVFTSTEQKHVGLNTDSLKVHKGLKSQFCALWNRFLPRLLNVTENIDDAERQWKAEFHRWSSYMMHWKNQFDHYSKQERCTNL
Settings: at 2 mg/mL
Description: Inhibition of electric eel AChE at 2 mg/ml by Ellman's method
test_readout: inhibition (%)
Numbers only; they are read as %.

Kindly note the recorded inhibition for O=c1oc2cc(O)ccc2c2oc3cc(O)ccc3c12 , which is 3.18

Given item CC[C@H](C)C(=O)O[C@H]1CCC=C2C=C[C@H](C)[C@H](CC[C@@H]3C[C@@H](O)CC(=O)O3)[C@H]21 , the value recorded as its inhibition is -9.46

Kindly note the recorded inhibition for CC(=O)OC[C@@]1(O)C[C@@]23CC[C@@H]4c5ccoc5CC[C@@]4(C)[C@@H]2CC[C@@H]1C3 , which is -6.2

Value of inhibition reported for the compound CC(C)=CC[C@@H](O)C1=CC(=O)c2c(O)ccc(O)c2C1=O is 15.7

// recorded inhibition for CN1CCc2cc(O)c(O)cc2C1Cc1cc(O)c(O)cc1Br (racemic) : 27.2

Entry O=c1c(O)c(-c2ccc(O)c(O)c2)oc2cc(O)cc(O)c12 ; inhibition = 18.1

// COc1ccc(C[C@H](N)C(=O)N[C@H]2[C@@H](O)[C@H](n3cnc4c(N(C)C)ncnc43)O[C@@H]2CO)cc1 : inhibition value = -7.92

// C=CCc1cc(OC)c2c(c1)OCO2 : inhibition value = 6.75

The compound C/C=C(\C)C(=O)O[C@H]1CC(C)=CC(=O)[C@@]2(C)CC[C@@](O)(C(C)C)[C@H]12 showed inhibition equal to 16.6

According to the records, this compound C[C@]12CC[C@H](O)C[C@H]1CC[C@@H]1[C@@H]2CC[C@]2(C)[C@@H](C3=CC(=O)OC3)[C@@H](O)C[C@]12O displays inhibition of -1.84

So, CCCCCC[C@@H]1[C@@H](OC(=O)C(C)C)[C@H](C)O[C@@H](O)[C@@H](N[C@H](O)c2cccc(NC=O)c2O)[C@@H](C)O[C@H]1O ? Its inhibition was -2.88

Lab note: CO[C@@H]1C[C@@H](C[C@H]2CC[C@H](C)[C@H]([C@@H](C)C(=O)O)O2)O[C@]2(O[C@](C)([C@H]3CC[C@@](C)([C@@H]4O[C@@H]([C@H]5O[C@@](O)(CO)[C@H](C)C[C@@H]5C)C[C@@H]4C)O3)C[C@H]2C)[C@@H]1C gave inhibition of -7.25

COc1cc2c(cc1OC)-c1cc3ccc(OC)c(OC)c3c[n+]1CC2.O.[Cl-] [PALMATINE CHLORIDE HYDRATE] has a reported inhibition of 72.6

Sample Cc1cc(=O)oc2cc(O)ccc12 ; inhibition observed: 4.46

For reference, reported inhibition for O=c1cccc2n1C[C@@H]1CNC[C@H]2C1 stands at 2.17

Reported inhibition for OCC1=C[C@@H](O)[C@@H]2C=CO[C@@H](O[C@@H]3O[C@H](CO)[C@@H](O)[C@H](O)[C@H]3O)[C@H]12 was -1.28

Input COc1cc(CCC(C)=O)ccc1O . Output inhibition: -5.32

###

Kindly supply the reported inhibition values for the records listed here.
Biological target: Cholinesterase (Equus caballus)
Settings: at 2 mg/mL
Description: Inhibition of horse BChE at 2 mg/ml by Ellman's method
# value in %; strip the unit string

Briefly, inhibition measured for COC[C@H]1OC(=O)c2coc3c2[C@@]1(C)C1=C(C3=O)[C@@H]2CCC(=O)[C@@]2(C)C[C@H]1OC(C)=O : -6.29

GET /value?item= COc1cc2c3cc1Oc1c(OO)c(OC)cc4c1[C@H](Cc1ccc(cc1)Oc1cc(ccc1O)C[C@H]3N(C)CC2)N(C)CC4.O=S(=O)(O)O [OXYACANTHINE SULFATE] &field=inhibition returns 66.3

CCC1=C[C@@H]2CN(C1)Cc1c([nH]c3ccccc13)[C@@](C(=O)OC)(c1cc3c(cc1OC)N(C)[C@H]1[C@@](O)(C(=O)OC)[C@H](OC(C)=O)[C@]4(CC)C=CCN5CC[C@]31[C@@H]54)C2 yielded inhibition of 12.2

The molecule listed as C[C@@H]1O[C@H](C[N+](C)(C)C)C[C@H]1O has a reported inhibition of -6.38

###

Target: Acetylcholinesterase (Electrophorus electricus) (UniProt O42275)
Settings: at 2 mg/mL
test_readout: inhibition (%)
Provide the reading as a plain figure in %.

Value of inhibition reported for the molecule O=C(O)c1cc(N(Cc2ccccc2O)Cc2ccccc2O)ccc1O is 2.48

# inhibition of C[C@@H]1CC[C@H]2[C@](C)(CO)[C@@H](O)CC[C@]2(C)[C@@]12CC[C@@](CO)(CCO)O2 = -4.53

GET /value?item= C[C@H]1COC2=C1C(=O)C(=O)c1c2ccc2c1CCCC2(C)C &field=inhibition returns 3.33

Please fill in: inhibition reported for CCN1C[C@]2(COC)CC[C@H](OC)[C@]34C1[C@H]([C@H](OC)[C@H]23)[C@@]1(OC(C)=O)C[C@H](OC)[C@@]2(O)C[C@@H]4[C@@H]1[C@H]2C(=O)c1ccc(OC)cc1 = 3.52

Consider C=CCc1ccc(O)c(-c2cc(CC=C)ccc2O)c1 . Its measured inhibition is -2.45

###

Can you tell me inhibition for the items I'm about to list?
Molecular target: Cholinesterase (Equus caballus) (UniProt P81908)
Sequence (P81908 whole entry): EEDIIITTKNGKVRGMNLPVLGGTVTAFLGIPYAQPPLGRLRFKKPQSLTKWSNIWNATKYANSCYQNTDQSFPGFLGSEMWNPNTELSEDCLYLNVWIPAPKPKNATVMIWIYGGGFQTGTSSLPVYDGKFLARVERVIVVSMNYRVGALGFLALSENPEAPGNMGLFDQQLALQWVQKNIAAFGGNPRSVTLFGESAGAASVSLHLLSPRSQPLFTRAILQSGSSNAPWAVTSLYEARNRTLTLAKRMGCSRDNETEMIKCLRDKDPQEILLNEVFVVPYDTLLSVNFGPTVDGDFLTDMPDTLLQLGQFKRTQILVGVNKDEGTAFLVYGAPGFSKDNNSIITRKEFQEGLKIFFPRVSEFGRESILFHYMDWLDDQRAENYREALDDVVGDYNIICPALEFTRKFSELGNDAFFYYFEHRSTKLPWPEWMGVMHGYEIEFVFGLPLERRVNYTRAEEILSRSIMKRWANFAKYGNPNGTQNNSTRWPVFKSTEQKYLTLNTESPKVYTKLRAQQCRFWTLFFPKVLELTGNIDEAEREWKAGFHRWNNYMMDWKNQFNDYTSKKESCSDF
Conditions: at 2 mg/mL
Provide the reading as a plain figure in %.

What the record says about COc1c2occc2c(OC)c2c(=O)cc(C)oc12 : inhibition is 3.3

Consider O=c1cc(-c2ccc(O)cc2)oc2cc(O)c([C@@H]3O[C@H](CO)[C@@H](O)[C@H](O)[C@H]3O)c(O)c12 . Its measured inhibition is 1.98

inhibition measured on O=C(/C=C/c1ccc(O)c(O)c1)OCCc1ccccc1 = 17.7

// COc1c2c(nc3ccccc13)OC(C(C)(O)CO)C2 (stereo not given) : inhibition value = -2.71

# inhibition (compound: COc1cc2c3cc1Oc1c(OC)c(OC)cc4c1[C@@H](Cc1ccc(OC(=O)c5ccc([N+](=O)[O-])cc5)c(c1)Oc1ccc(cc1)C[C@@H]3N(C)CC2)N(C)CC4 [E6 BERBAMINE] ) is 0.47

Value of inhibition reported for the compound COc1ccc(C(=O)OC2C[C@H]3CC[C@H](C2)N3C)cc1OC (stereo not given in full) is 1

Entry O=C(O)Cc1c[nH]c2ccccc12 — recorded inhibition = -7.42

Measured inhibition, C[C@@H]1CC[C@H]2[C@@H](C)C(=O)O[C@@H]3O[C@@]4(C)CC[C@@H]1[C@]32OO4 : 35.6

Noted for C=CCc1cc(OC)c2c(c1)OCO2 : its inhibition reads -9.87

Measured inhibition of C=C(C)[C@H]1CN[C@H](C(=O)O)[C@H]1CC(=O)O : 4.53

So for CC(C)C[C@H]1C(=O)N2CCC[C@H]2[C@]2(O)O[C@](NC(=O)[C@@H]3C=C4c5cccc6[nH]c(Br)c(c56)C[C@H]4N(C)C3)(C(C)C)C(=O)N12 , the logged inhibition turned out to be 9.94

The compound identified as COc1ccc(C[C@H](N)C(=O)N[C@H]2[C@@H](O)[C@H](n3cnc4c(N(C)C)ncnc43)O[C@@H]2CO)cc1 registered its inhibition at -9.98

Form field inhibition, entry O=c1cc(-c2ccccc2)oc2cc(O)c(O)cc12 : 1.82

Looking up COc1ccc(-c2oc3cc(O)cc(O)c3c(=O)c2O)cc1O , I found its inhibition recorded as 3.18

Query Cc1c([C@H](C)[C@@H]2NC[C@@H](C)C[C@H]2O)ccc2c1C[C@H]1[C@H]2CC=C2C[C@@H](O)CC[C@@]21C [VERATRAMINE] yields inhibition of 66.2

Form: compound = CC1=C2[C@H]3OC(=O)[C@@H](C)[C@@H]3CC[C@@]2(C)C=CC1=O ; inhibition = -3.62

For record CC[C@@H](C(=O)[C@@H](C)[C@@H](O)[C@H](C)CCc1ccc(C)c(O)c1C(=O)O)[C@H]1O[C@](CC)([C@H]2CC[C@](O)(CC)[C@H](C)O2)C[C@@H]1C the listed inhibition is 10.5

inhibition reported for this compound N[C@H](C(=O)O)[C@@H]1CC(Cl)=NO1 : 8.62

O=c1cccc2n1C[C@@H]1CNC[C@H]2C1 has a reported inhibition of -3.85

inhibition reported for this compound C[C@@]1(CO)[C@H](O)CC[C@@]2(C)[C@H]1CC[C@H]1C[C@@H]3C[C@@]12CC[C@]3(O)CO : 13.5

// inhibition lookup, compound = C[C@H]1CC[C@@]2(OC1)O[C@H]1C[C@H]3[C@@H]4CC[C@@H]5C[C@@H](O)CC[C@]5(C)[C@H]4CC[C@]3(C)[C@H]1[C@@H]2C , result: -2.96

Recorded result, CC[C@H](CC[C@@H](C)[C@H]1CC[C@H]2[C@@H]3CC=C4C[C@@H](O)CC[C@]4(C)[C@H]3CC[C@]12C)C(C)C , inhibition: -1.87

The compound listed as C=C[C@H]1CN2CC[C@H]1C[C@H]2[C@H](O)c1ccnc2ccccc12 shows inhibition equal to -0.03

Recorded inhibition (compound COc1ccc([C@@H]2OC[C@@H]3[C@H]2CO[C@H]3c2ccc(OC)c(OC)c2)cc1OC ): 0.02

inhibition in this record for COc1cc([C@@H]2c3cc4c(cc3[C@H](O)[C@H]3COC(=O)[C@@H]23)OCO4)cc(OC)c1OC : -2.7

Notebook: Cc1cc(Cc2cc(C)cc(C(C)(C)C)c2O)c(O)c(C(C)(C)C)c1 , inhibition read as 0.28

inhibition measured on O=c1cc(-c2ccc(O)c(O)c2)oc2cc(O)cc(O)c12 = 0.42

Kindly note the recorded inhibition for C=C(C)[C@@H]1CC[C@]2(C(=O)O)CC[C@]3(C)[C@H](CC[C@@H]4[C@@]5(C)CC[C@H](O)C(C)(C)[C@@H]5CC[C@]43C)[C@@H]12 , which is 2.88

GET /value?item= CCCCCCCCCCCCCC(=O)O[C@@H]1[C@@H](C)[C@@]2(O)[C@@H](C=C(CO)C[C@]3(O)C(=O)C(C)=C[C@@H]23)[C@@H]2C(C)(C)[C@]12OC(C)=O &field=inhibition returns -6.35

Record summary for O=C(/C=C/c1ccc(O)c(O)c1)c1ccc(O[C@@H]2O[C@H](CO)[C@@H](O)[C@H](O)[C@H]2O)c(O)c1O : reported inhibition = 2.03

Recorded result, CC1=C2C[C@H]3[C@@H](CC=C4C[C@@H](O)CC[C@@]43C)[C@@H]2CC[C@]12O[C@@H]1C[C@H](C)CN[C@H]1[C@H]2C , inhibition: 5.84

The compound listed as CCCC[N+]1(C)[C@@H]2C[C@@H](OC(=O)[C@H](CO)c3ccccc3)C[C@H]1[C@@H]1O[C@@H]12 (stereo not given in full) has a reported inhibition of -4.42

response.value for O=C(O)C1=C[C@@H](O)[C@@H](O)[C@H](O)C1 (field: inhibition) = -4.96

inhibition for O=C(O)/C=C/c1c[nH]c2ccccc12 is 4.54

Entry COc1cc(O)c2c(=O)c(O)c(-c3ccc(O)c(O)c3)oc2c1 ; inhibition = 3.5

Reference source: ChEMBL document CHEMBL2163249
